These data points were gathered from patent US20250206732A1.

I'd appreciate it if you could supply Dmax values for the items below.
target: AsPC-1 HiBiT-KRASG12D (Homo sapiens, UniProt P01116, G12D); construct: insert the HiBiT tag onto the N-terminus of one or more of the endogenous KRAS alleles; endogenous in cells; host or cells: AsPC-1 (ATCC CRL-1682), CRISPR-Cas9 knock-in clone, one tagged allele; test: HiBiT degradation assay (G12D), AsPC-1 HiBiT-KRASG12D cells; assay type: cell-based; conditions: ASPC1, AsPC-1 HiBiT-KRASG12D cells, 24 hours treatment, maximum degradation observed
Sequence (P01116 1-188 isoform P01116-2 G12D): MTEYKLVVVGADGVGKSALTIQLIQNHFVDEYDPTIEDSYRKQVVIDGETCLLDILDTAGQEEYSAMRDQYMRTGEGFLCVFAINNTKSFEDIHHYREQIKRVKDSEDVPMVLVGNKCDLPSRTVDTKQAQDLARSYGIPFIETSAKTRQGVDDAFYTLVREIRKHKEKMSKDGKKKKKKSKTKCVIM

Provide only the value of recorded Dmax for CCc1cccc2cc(O)cc(-c3ncc4c(N5CC6CCC(C5)N6)nc(OCCN5C[C@@H]6CN(c7cc(C(C(=O)N8C[C@H](O)C[C@H]8C(=O)N[C@@H](C)c8ccc(-c9scnc9C)cc8)C(C)C)on7)C[C@@H]6C5)nc4c3F)c12 (relative stereo) [Compound 80]
80 to 100%

Provide only the value of recorded Dmax for CCc1cccc2cc(O)cc(-c3ncc4c(N5CC6CCC(C5)N6)nc(OC[C@@]56CCCN5[C@@H](COC(=O)N5CCN(c7cc(C(C(=O)N8C[C@H](O)C[C@H]8C(=O)N[C@@H](C)c8ccc(-c9scnc9C)cc8)C(C)C)on7)CC5)CC6)nc4c3F)c12 (single isomer, unassigned) [Compound 108]
80 to 100%

Provide only the value of recorded Dmax for C#Cc1c(F)ccc2cc(O)cc(-c3ncc4c(N5CC6CCC(C5)N6)nc(OCCN5CCC(CC6CCN(c7cc([C@H](C(=O)N8C[C@H](O)C[C@H]8C(=O)N[C@@H](C)c8ccc(-c9ccnn9C)cc8)C(C)C)on7)CC6)CC5)nc4c3F)c12 [Compound 168]
80 to 100%

Provide only the value of recorded Dmax for CCc1cccc2cc(O)cc(-c3ncc4c(N5CC6CCC(C5)N6)nc(OC[C@]56CCCN5[C@H](COc5cc([C@@H](C(=O)N7C[C@H](O)C[C@H]7C(=O)N[C@@H](C)c7ccc(-c8scnc8C)cc7)C(C)C)on5)CC6)nc4c3F)c12 [Compound 324]
80 to 100%

Provide only the value of recorded Dmax for CCc1cccc2cc(O)cc(-c3ncc4c(N5CC6CCC(C5)N6)nc(OCCN5CCC(F)(CN6CCN(c7cc([C@@H](C(=O)N8C[C@H](O)C[C@H]8C(=O)N[C@@H](C)c8ccc(-c9scnc9C)cc8)C(C)C)on7)[C@@H](C)C6)CC5)nc4c3F)c12 [Compound 203]
20 to 60%

Provide only the value of recorded Dmax for Cc1ncsc1-c1ccc([C@H](C)NC(=O)[C@@H]2C[C@@H](O)CN2C(=O)[C@H](c2cc(OC[C@@H]3CC[C@]4(COc5nc(N6CC7CCC(C6)N7)c6cnc(-c7cc(O)cc(Cl)c7C7CC7)c(F)c6n5)CCCN34)no2)C(C)C)cc1 [Compound 65]
< 20%

Provide only the value of recorded Dmax for CCc1cccc2cc(O)cc(-c3cc4nc(OC[C@]56CCCN5[C@H](COC(=O)N5CCN(c7cc(C(C(=O)N8C[C@H](O)C[C@H]8C(=O)N[C@@H](C)c8ccc(-c9scnc9C)cc8)C(C)C)on7)CC5)CC6)nc(N5CC6CCC(C5)N6)c4cn3)c12 (single isomer, unassigned) [Compound 266]
80 to 100%

====

I'd appreciate it if you could supply DC50 values for the items below.
molecular target: AsPC-1 HiBiT-KRASG12D (Homo sapiens, UniProt P01116, G12D); construct: insert the HiBiT tag onto the N-terminus of one or more of the endogenous KRAS alleles; endogenous in cells; host or cells: AsPC-1 (ATCC CRL-1682), CRISPR-Cas9 knock-in clone, one tagged allele; assay: HiBiT degradation assay (G12D), AsPC-1 HiBiT-KRASG12D cells; type: cell-based; conditions: AsPC-1 HiBiT-KRASG12D cells, 24 hours treatment, HiBiT luminescence

Report measured DC50 on AsPC-1 HiBiT-KRASG12D (Homo sapiens, UniProt P01116, G12D); entry: C#Cc1c(F)ccc2cc(O)cc(-c3ncc4c(N5CC6CCC(C5)N6)nc(OCCN5CCC(C6CN(c7cc([C@H](C(=O)N8C[C@H](O)C[C@H]8C(=O)N[C@@H](C)c8ccc(-c9scnc9C)cc8)C(C)C)on7)C6)CC5)nc4c3F)c12
< 600 nM

Report measured DC50 on AsPC-1 HiBiT-KRASG12D (Homo sapiens, UniProt P01116, G12D); entry: C#Cc1c(F)ccc2cc(O)cc(-c3ncc4c(N5CC6CCC(C5)N6)nc(OC[C@]56CCCN5[C@H](COC(=O)N5CCN(c7cc([C@H](C(=O)N8C[C@H](O)C[C@H]8C(=O)N[C@@H](C)c8ccc(-c9scnc9C)cc8)C(C)C)on7)CC5)CC6)nc4c3F)c12
< 600 nM

====

molecular target: AsPC-1 HiBiT-KRASG12D (Homo sapiens, UniProt P01116, G12D); construct: insert the HiBiT tag onto the N-terminus of one or more of the endogenous KRAS alleles; endogenous in cells; host or cells: AsPC-1 (ATCC CRL-1682), CRISPR-Cas9 knock-in clone, one tagged allele; assay: HiBiT degradation assay (G12D), AsPC-1 HiBiT-KRASG12D cells; format: cell-based; settings: AsPC-1 HiBiT-KRASG12D cells, 24 hours treatment, HiBiT luminescence
Quantity: DC50

Report measured DC50 on AsPC-1 HiBiT-KRASG12D (Homo sapiens, UniProt P01116, G12D); entry: C#Cc1c(F)ccc2cc(O)cc(-c3ncc4c(N5CC6CCC(C5)N6)nc(OC[C@@]56CCCN5[C@H](COc5cc([C@@H](C(=O)N7C[C@H](O)C[C@H]7C(=O)N[C@@H](C)c7ccc(-c8scnc8C)cc7)C(C)C)on5)CC6)nc4c3F)c12
> 3 µM

Report measured DC50 on AsPC-1 HiBiT-KRASG12D (Homo sapiens, UniProt P01116, G12D); entry: CCc1cccc2cc(O)cc(-c3ncc4c(N5CC6CCC(C5)N6)nc(OCCN5CC[C@H]6[C@H](CCN6c6cc([C@H](C(=O)N7C[C@H](O)C[C@H]7C(=O)N[C@@H](C)c7ccc(-c8scnc8C)cc7)C(C)C)on6)C5)nc4c3F)c12 (relative stereo)
< 0.6 µM

Report measured DC50 on AsPC-1 HiBiT-KRASG12D (Homo sapiens, UniProt P01116, G12D); entry: CCc1cccc2cc(O)cc(-c3ncc4c(N5CC6CCC(C5)N6)nc(OCCN5CCC(COc6cc([C@@H](C(=O)N7C[C@H](O)C[C@H]7C(=O)N[C@@H](C)c7ccc(-c8ccnn8C)cc7)C(C)C)on6)CC5)nc4c3F)c12 (relative stereo)
> 3 µM

Report measured DC50 on AsPC-1 HiBiT-KRASG12D (Homo sapiens, UniProt P01116, G12D); entry: CCc1cccc2cc(O)cc(-c3ncc4c(N5CC6CCC(C5)N6)nc(OC[C@@]56CCCN5[C@H](COC(=O)N5CCN(c7cc([C@@H](C(=O)N8C[C@H](O)C[C@H]8C(=O)N[C@@H](C)c8ccc(-c9scnc9C)cc8)C(C)C)on7)C[C@@H]5C)CC6)nc4c3F)c12
< 0.6 µM

====

biological target: SW1573 HiBiT-KRASG12C (Homo sapiens, UniProt P01116, G12C); construct: expressed in transfected cells; assay: HiBiT degradation assay (G12C), SW1573 HiBiT-KRASG12C cells; type: cell-based; conditions: 24 hours treatment, HiBiT luminescence;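 also: Letter grades: C is 1000 to 3000 nM and D is above 3000 nM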
Sequence (P01116 1-188 isoform P01116-2 G12C): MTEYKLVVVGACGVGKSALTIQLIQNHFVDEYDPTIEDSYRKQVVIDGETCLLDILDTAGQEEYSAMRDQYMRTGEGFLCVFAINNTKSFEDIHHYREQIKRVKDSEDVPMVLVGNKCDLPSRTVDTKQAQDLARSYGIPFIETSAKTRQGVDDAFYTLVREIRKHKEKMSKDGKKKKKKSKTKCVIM
I'd appreciate it if you could supply DC50 values for the items below.

Provide only the value of recorded DC50 for CCc1cccc2cccc(-c3ncc4c(N5CC6CCC(C5)N6)nc(OC[C@@]56CCCN5[C@H](COC(=O)N5CCN(c7cc([C@H](C(=O)N8C[C@H](O)C[C@H]8C(=O)N[C@@H](C)c8ccc(-c9scnc9C)cc8)C(C)C)on7)CC5)CC6)nc4c3F)c12 [Compound 35]
> 3 µM

Provide only the value of recorded DC50 for C#Cc1cccc2cc(O)cc(-c3ncc4c(N5CC6CCC(C6)C5)nc(OCCN5CCC(COCC(=O)N[C@H](C(=O)N6C[C@H](O)C[C@H]6C(=O)N[C@@H](C)c6ccc(-c7scnc7C)cc6)C(C)(C)C)CC5)nc4c3F)c12 [Compound 17]
1 to 3 µM

Provide only the value of recorded DC50 for CCc1cccc2cc(O)cc(-c3ncc4c(N5CC6CCC(C5)N6)nc(OCCN5CCC6(CC5)CN(c5cc([C@@H](C(=O)N7C[C@H](O)C[C@H]7C(=O)N[C@@H](C)c7ccc(-c8scnc8C)cc7)C(C)C)on5)C6)nc4c3F)c12 [Compound 15]
> 3 µM

Provide only the value of recorded DC50 for CCc1cccc2cc(O)cc(-c3ncc4c(N5CC6CCC(C5)N6)nc(OC[C@]56CCCN5[C@@H](COC(=O)N5CCN(c7cc([C@@H](C(=O)N8C[C@H](O)C[C@H]8C(=O)N[C@@H](C)c8ccc(-c9scnc9C)cc8)C(C)C)on7)CC5)CC6)nc4c3F)c12 [Compound 6]
> 3 µM
